- test system: Delta-type opioid receptor (Mus musculus, UniProt P32300)
- Sequence (P32300 whole entry): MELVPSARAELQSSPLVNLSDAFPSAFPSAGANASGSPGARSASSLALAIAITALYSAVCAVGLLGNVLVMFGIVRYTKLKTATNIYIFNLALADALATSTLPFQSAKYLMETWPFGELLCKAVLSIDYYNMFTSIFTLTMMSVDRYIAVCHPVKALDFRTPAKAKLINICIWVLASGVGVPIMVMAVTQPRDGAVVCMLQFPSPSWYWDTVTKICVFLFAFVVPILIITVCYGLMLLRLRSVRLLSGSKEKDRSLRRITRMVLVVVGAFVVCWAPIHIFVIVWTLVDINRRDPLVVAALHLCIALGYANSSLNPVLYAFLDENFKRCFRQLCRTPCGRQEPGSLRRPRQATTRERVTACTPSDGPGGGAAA
- experimental details: Displacement of [3H]-naltrindole from mouse delta opioid receptor expressed in CHO cells after 1.5 hrs
value type: pKi
Entry type: numeric. Quantity: pKi, the -log10 of concentration in molar units.

O=C(N[C@H]1CC[C@@]2(O)[C@H]3Cc4ccc(O)c5c4[C@@]2(CCN3CC2CC2)[C@H]1O5)c1ncc2ccccc2n1 : 7.10
O=C(N[C@H]1CC[C@@]2(O)[C@H]3Cc4ccc(O)c5c4[C@@]2(CCN3CC2CC2)[C@H]1O5)c1cc2ccccc2cn1 : 6.79
CN1Cc2ccccc2C[C@H]1C(=O)N[C@H]1CC[C@@]2(O)[C@H]3Cc4ccc(O)c5c4[C@@]2(CCN3CC2CC2)[C@H]1O5 : 8.03
COc1c(C(=O)N[C@H]2CC[C@@]3(O)[C@H]4Cc5ccc(O)c6c5[C@@]3(CCN4CC3CC3)[C@H]2O6)nc(Cl)c2ccccc12 : 7.47
Cc1nc(C(=O)N[C@H]2CC[C@@]3(O)[C@H]4Cc5ccc(O)c6c5[C@@]3(CCN4CC3CC3)[C@H]2O6)cc2ccccc12 : 6.93

Prompt line: Give the measured pKi for "O=C(N[C@H]1CC[C@@]2(O)[C@H]3Cc4ccc(O)c5c4[C@@]2(CCN3CC2CC2)[C@H]1O5)c1cc2ccccc2c(Cl)n1"
Response line: 7.10

Prompt line: Supply pKi value. Item: "O=C(N[C@H]1CC[C@@]2(O)[C@H]3Cc4ccc(O)c5c4[C@@]2(CCN3CC2CC2)[C@H]1O5)c1ncc2ccccc2c1O"
Response line: 7.48

Prompt line: Quote pKi reported for "O=C(CCc1cc2ccccc2cn1)N[C@H]1CC[C@@]2(O)[C@H]3Cc4ccc(O)c5c4[C@@]2(CCN3CC2CC2)[C@H]1O5" please.
Response line: 8.08

Prompt line: Respond only with pKi recorded for "N#Cc1nc(C(=O)N[C@H]2CC[C@@]3(O)[C@H]4Cc5ccc(O)c6c5[C@@]3(CCN4CC3CC3)[C@H]2O6)cc2ccccc12"
Response line: 6.89

Prompt line: Using known records, supply pKi for "O=C(N[C@H]1CC[C@@]2(O)[C@H]3Cc4ccc(O)c5c4[C@@]2(CCN3CC2CC2)[C@H]1O5)c1nc(Cl)c2ccccc2c1O"
Response line: 7.76

Prompt line: Return pKi for the following compound: "O=C(CNC(=O)c1cc2ccccc2cn1)N[C@H]1CC[C@@]2(O)[C@H]3Cc4ccc(O)c5c4[C@@]2(CCN3CC2CC2)[C@H]1O5"
Response line: 8.04

Prompt line: Please indicate pKi recorded for "O=C(Cc1cc2ccccc2cn1)N[C@H]1CC[C@@]2(O)[C@H]3Cc4ccc(O)c5c4[C@@]2(CCN3CC2CC2)[C@H]1O5"
Response line: 7.90

----------
- test system: Mu-type opioid receptor (Mus musculus)
- Sequence (P42866 whole entry): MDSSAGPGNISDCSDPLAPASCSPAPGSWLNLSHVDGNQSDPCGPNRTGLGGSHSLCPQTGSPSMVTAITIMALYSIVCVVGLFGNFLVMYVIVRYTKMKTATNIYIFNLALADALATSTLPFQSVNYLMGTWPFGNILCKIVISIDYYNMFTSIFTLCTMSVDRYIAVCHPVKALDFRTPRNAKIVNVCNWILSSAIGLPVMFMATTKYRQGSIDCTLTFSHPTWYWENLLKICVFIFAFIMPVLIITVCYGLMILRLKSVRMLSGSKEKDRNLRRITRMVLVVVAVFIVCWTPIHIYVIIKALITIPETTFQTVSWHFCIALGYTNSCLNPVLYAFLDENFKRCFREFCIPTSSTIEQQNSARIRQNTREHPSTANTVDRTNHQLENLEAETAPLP
pKi: −log10 of the molar value.
Classify as follows. Reported pKi greater than or equal to 9: condition met. Reported pKi below: condition not met.

// below: answered compounds
O=C(N[C@H]1CC[C@@]2(O)[C@H]3Cc4ccc(O)c5c4[C@@]2(CCN3CC2CC2)[C@H]1O5)c1ncc2ccccc2c1O : condition met
CN1Cc2ccccc2C[C@H]1C(=O)N[C@H]1CC[C@@]2(O)[C@H]3Cc4ccc(O)c5c4[C@@]2(CCN3CC2CC2)[C@H]1O5 : condition not met
Cc1nc(C(=O)N[C@H]2CC[C@@]3(O)[C@H]4Cc5ccc(O)c6c5[C@@]3(CCN4CC3CC3)[C@H]2O6)cc2ccccc12 : condition not met

Let's switch to this compound now.
Prompt line: Form field: pKi at least 9? Entry: "O=C(CNC(=O)c1cc2ccccc2cn1)N[C@H]1CC[C@@]2(O)[C@H]3Cc4ccc(O)c5c4[C@@]2(CCN3CC2CC2)[C@H]1O5"
Response line: condition not met

Data credit: ChEMBL document CHEMBL2417375
